Test system: HepG2 cells
test.summary: HepG2 cytotoxicity assay
stated.conditions: HepG2 cytotoxicity listed with the Pb ODA data set (this manuscript)
Procedure: Briefly, HepG2 cells were seeded onto compound-treated 384 well plates at a density of 2,500 cells per well in Minimal Essential Medium (MEM) plus 10% fetal bovine serum and 1% non-essential amino acids solution (NEAA). […] Cell viability was then measured in a fluorescent plate reader and percent inhibition calculated with respect to positive and negative controls.
assay.metric: Pb ODA (this manuscript) HepG2 cytoxicity (µM)
Only the number, expressed in µM, is required.

Previously resolved entries follow.
CC(=O)Oc1c(Cl)c(C)nc(C)c1-c1ccc(Oc2ccc(OC(F)(F)F)cc2)cc1 [TCMDC-137385] : 31.99
COc1nc2c(CCN3CCC(NCc4ccc5c(n4)NC(=O)CO5)CC3)c(Cl)cnc2cc1F.Cl [TCMDC-135766] : 42.66
COc1ccc2ncc(C#N)c(CCN3CCC(NCc4ccc5c(c4)NC(=O)CO5)CC3)c2c1.Cl [TCMDC-135645] : 38.90
COc1cccc(C=Cc2nc(=O)c3ccccc3o2)c1OC [TCMDC-124577] : 100.00
CNC(=O)c1cc(F)c(F)cc1Nc1nc(Nc2cccc(CS(C)(=O)=O)c2)ncc1Cl.O=CO [TCMDC-134060] : 100.00
Cc1[nH]c(C)c(-c2ccc(C(F)(F)F)cc2)c(=O)c1Br [TCMDC-137429] : 100.00

Recorded Pb ODA (this manuscript) HepG2 cytoxicity (compound CNCCN(C)C(=O)Oc1c(Br)c(C)nc(C)c1-c1ccc(Oc2ccc(OC(F)(F)F)cc2)cc1.Cl [TCMDC-137377] ): 8.32

Recorded Pb ODA (this manuscript) HepG2 cytoxicity (compound COc1ccc2ncc(F)c(NC(=O)C3CCC(NCc4cc5c(F)cccc5[nH]4)CC3)c2n1.Cl (centres unmarked) [TCMDC-136354] ): 3.63

---

Test system: HepG2 cells
test.summary: HepG2 cytotoxicity assay
stated.conditions: unified HepG2 value across the three screens
Item-by-item account of Unified cytotox

Previously resolved entries follow.
CCN(CC)CCCOC(=O)c1ccc2c(c1)-c1ccc(C(=O)OCCCN(CC)CC)c3cccc-2c13.Cl [TCMDC-125491] : 20.00 µM
CC(C#N)Cc1ccc(-c2cnc(N)c3cc(-c4ccnc(N)n4)ccc23)cc1 (stereo not drawn) [TCMDC-134547] : 5.75 µM

In the following, a different compound is considered.
Recorded Unified cytotox (compound O=c1cc(NCCCN(Cc2ccccc2)Cc2ccccc2)[nH]c2ccccc12 [TCMDC-139368] ): 33.88 µM

---

Item-by-item account of HepG2 cytoxicity (Pb ODA, this manuscript)
Tested on: HepG2 cells
test.summary: HepG2 cytotoxicity assay
stated.conditions: HepG2; this manuscript
State the value with its unit after it.

Previously resolved entries follow.
Cc1[nH]c(C)c(-c2ccc(OCc3cc(C(F)(F)F)cc(C(F)(F)F)c3)nc2)c(=O)c1Br [TCMDC-135815] : 0.71 µM
CCOc1ccc(-c2nonc2NC(=O)c2cccc(Cl)c2)cc1OCC [TCMDC-125200] : 19.50 µM
Cc1ccnc(NC(c2cccc(Cl)c2Cl)c2ccc3cccnc3c2O)c1 (centres unmarked) [TCMDC-123997] : 2.88 µM
COc1ccc2ncc(C)c(CCN3CCC(NCc4ccc5c(n4)NC(=O)CS5)CC3)c2c1.Cl [TCMDC-134648] : 34.67 µM
C=CC(C)C1OC(=O)c2cc(OC)cc(OC)c21 (centres unmarked) [TCMDC-138676] : 1.22 µM
COc1ccc2ncc(F)c(CCN3CCC(NC(=O)c4ccc5c(n4)NC(=O)CS5)C(O)C3)c2n1 (centres unmarked) [TCMDC-135907] : 42.17 µM
CCc1cc2c3c(N)nc(N)nc3ccc2n1CC [TCMDC-137851] : 0.0224 µM

In the following, a different compound is considered.
Recorded HepG2 cytoxicity (Pb ODA, this manuscript) (compound Cc1[nH]c(C)c(-c2ccc(CCc3cccc(C(F)(F)F)c3)nc2)c(=O)c1Cl [TCMDC-136014] ): 7.08 µM
